tested on: SR leukemia; assay: NCI tumour cell line growth inhibition, 48 h
Catalogue of TGI values

The cases that follow already have their TGI on record.
- compound: "CC(C)(C)OC(=O)NC(CCCCNC(=O)OCc1ccccc1)C(=O)NCCNc1ccc(NCCNC(=O)C(CCCCNC(=O)OCc2ccccc2)NC(=O)OC(C)(C)C)c2c1C(=O)c1ccccc1C2=O (centres undefined)"
  TGI: "> 100 µM"
- compound: "CC(=O)OCC1OC(n2cc(F)c(=O)[nH]c2=O)C(NC(=O)N(CCCl)N=O)C(OC(C)=O)C1OC(C)=O (centres undefined)"
  TGI: "> 100 µM"
- compound: "NNC(=S)N/N=C(\\C(=O)Nc1cccc(O)c1)C1C(=O)NC(=S)NC1=O"
  TGI: "> 100 µM"
- compound: "CC(NC(=O)/C(=C/c1ccccc1)NC(=O)c1ccccc1)C(=O)O (centres undefined)"
  TGI: "> 100 µM"

[Q] Find TGI (SR leukemia) for the entry Cc1c(N2C(=O)/C(=C/c3ccc(Cl)cc3)N=C2c2ccccc2)c(=O)n(-c2ccccc2)n1C
[A] 76.3 µM

[Q] Kindly state the measured TGI obtained for O=C(c1ccccc1)c1c(CC(O)c2ccccn2)n(C(=O)c2ccccc2)c2ccccc12 (centres undefined) with SR leukemia.
[A] 50 µM

[Q] Which measured TGI belongs to CCOC(=O)/C(=C/N1CCN(C(=O)c2ccco2)C1=S)C(=O)c1ccccc1 , tested on SR leukemia?
[A] 16.4 µM

[Q] Short answer please: TGI, SR leukemia, entry Fc1cccc(COc2ccc(Nc3ncnc4sc(-c5cccs5)cc34)cc2Cl)c1
[A] > 25 µM

[Q] Under SR leukemia: TGI value of COC(=O)CC(NC(=O)OCc1ccccc1)C(C(C)=O)C(=O)OCc1ccccc1 (centres undefined) ?
[A] > 100 µM

* * *

tested on: A498 renal; experiment: NCI tumour cell line growth inhibition, 48 h; in the data active = GI50 below about 0.43 µM; inactive = the rest
Allowed answers: Y for active, N for inactive

- compound: "CCOC(=O)c1cc(C(=O)c2cc(OC)c(OC)c(OC)c2)n2ncccc12"
  categoryLabel: "Y"
- compound: "COc1cc(Nc2nc3cc(N)cc(N)c3nc2-c2ccccc2)cc(OC)c1OC"
  categoryLabel: "N"
- compound: "CC(=O)Nc1ccc2c(c1)C(c1ccccc1Cl)=Nc1c(n[nH]c1C)N2"
  categoryLabel: "N"
- compound: "CC(C)(C)c1ccc(S(=O)(=O)Oc2ccc3c4c(c(=O)oc3c2)CCCCC4)cc1"
  categoryLabel: "N"
- compound: "N.N.N.N.N.[Co+3].[I-].[N-]=[N+]=[N-]"
  categoryLabel: "N"
- compound: "COc1ccc(C2=N[C@@H](Cc3ccccc3)C(=O)Nc3ccsc32)cc1"
  categoryLabel: "N"
- compound: "C=C1CC[C@@H]2[C@](C)(COC(C)=O)[C@H](OC(C)=O)CC[C@@]2(C)[C@@H]1CC(Nc1ccc(S(=O)(=O)NC(C)=O)cc1)C1=CCOC1=O (some centres undefined)"
  categoryLabel: "N"
- compound: "COCCNCc1ccc(-c2cc3nccc(Oc4ccc(NC(=S)NC(=O)Cc5ccc(F)cc5)cc4F)c3s2)nc1"
  categoryLabel: "N"

# ---- query compound ----
[Q] Test call for this compound, please: OCCN1CCN(CCCN2c3ccccc3Sc3ccc(Cl)cc32)CC1
[A] N

* * *

test system: LXFL 529 NSCLC; test: NCI tumour cell line growth inhibition, 48 h
measurementLabel: TGI

Would you please look over these solved cases?
- compound: "COC(=O)CCC(NC(=S)N/N=C(\\C)c1cnc2ccccc2n1)C(=O)OC (configuration not stated)"
  testSystem: "LXFL 529 NSCLC"
  measurementLabel: "TGI"
  dataValue: "> 100 µM"
- compound: "Nc1ncnc2c1ncn2[C@]1(CO)C=C(CO)C(O)C1O (some centres not stated)"
  testSystem: "LXFL 529 NSCLC"
  measurementLabel: "TGI"
  dataValue: "> 100 µM"
- compound: "N.N.N.N.N.[Co+3].[I-].[N-]=[N+]=[N-]"
  testSystem: "LXFL 529 NSCLC"
  measurementLabel: "TGI"
  dataValue: "> 100 µM"
- compound: "CC(=O)OCC1OC(n2cc(F)c(=O)[nH]c2=O)C(NC(=O)N(CCCl)N=O)C(OC(C)=O)C1OC(C)=O (configuration not stated)"
  testSystem: "LXFL 529 NSCLC"
  measurementLabel: "TGI"
  dataValue: "> 100 µM"
- compound: "N#CC12Cc3cc4c(cc3-c3cccc(c31)CCN2C(=O)c1ccccc1)OCO4 (configuration not stated)"
  testSystem: "LXFL 529 NSCLC"
  measurementLabel: "TGI"
  dataValue: "> 100 µM"

The record that follows has no TGI shown yet.
[Q] Suppose we examine the compound COc1ccc(NC(=O)C(=O)c2c(O)c3ccc(O)cc3oc2=O)c([N+](=O)[O-])c1 ; what TGI value has been reported?
[A] > 100 µM

* * *

tested on: SN12C renal; experiment: NCI tumour cell line growth inhibition, 48 h
// reported GI50 per item

Study these solved cases before continuing.
- molecule: "CS(=O)(=O)Nc1cncc(-c2ccc3ncnc(Nc4ccc(F)c(Cl)c4)c3c2)c1"
  testSystem: "SN12C renal"
  GI50: "2.6 µM"
- molecule: "CCCCCCCCCCCCOC1C(CNC(=O)C2OC3OC(C)(C)OC3C2NC(=O)Nc2ccc(CC(=O)OC)cc2)OC2OC(C)(C)OC21 (stereo not given)"
  testSystem: "SN12C renal"
  GI50: "> 100 µM"
- molecule: "CCN(Cc1ccc(C)cc1)c1ccc(CO)c(Cl)c1"
  testSystem: "SN12C renal"
  GI50: "10.6 µM"
- molecule: "CCSCC1CC(O)(c2ccccc2)CC(c2ccc(F)cc2)O1 (stereo not given)"
  testSystem: "SN12C renal"
  GI50: "1.74 µM"
- molecule: "O=C(Nc1ccc2[nH]nc(-c3ccncc3)c2c1)[C@@H]1CCN(CC(=O)N2CCN(c3ccc(-c4ncccn4)cc3)CC2)C1"
  testSystem: "SN12C renal"
  GI50: "> 100 µM"
- molecule: "Cc1cc2nc3c4cc(O)ccc4n(CCN(C)C)c3nc2cc1C"
  testSystem: "SN12C renal"
  GI50: "0.586 µM"

[Q] Sample C/C(=N\NC(=S)N1CCCCC1)c1ccccn1 — what was its GI50?
[A] 0.29 µM

[Q] Consider the molecule O=c1[nH]c2ccccc2c2ccccc12 and give its measured GI50.
[A] > 100 µM

[Q] For the molecule O=Nc1ccc(O)c(=O)cc1 , what GI50 is on record?
[A] 2.95 µM

[Q] Entry under review: COc1ccc2c(c1)/C(=C\c1c(-c3cc(OC)ccc3OC)nc3sc(C)cn13)C(=O)N2C . Reported GI50?
[A] 24.7 µM

* * *

tested on: SK-OV-3 ovarian; assay: NCI tumour cell line growth inhibition, 48 h
In this section, each of the compounds is paired with its reported GI50.

- compound: "NS(=O)(=O)c1ccc(Nc2cc(-c3cccc(O)c3)[nH]n2)cc1"
  dataValue: "> 25 µM"

[Q] Quick check: GI50 of CC(N)C(Cc1ccc(Cl)cc1)c1ccc(Cl)cc1 (centres undefined) ?
[A] 16.8 µM

[Q] Fill blank: measured GI50 of the compound COc1ccc(C2=N[C@@H](Cc3ccccc3)C(=O)Nc3ccsc32)cc1 is ____.
[A] 4.56 µM

[Q] Request the reported GI50 associated with O=C(CC(Cl)=C(Cl)Cl)Nc1ccccc1
[A] > 100 µM

* * *

tested on: SK-MEL-5 melanoma; experiment: NCI tumour cell line growth inhibition, 48 h; in the data active means GI50 below about 0.43 µM; inactive means the rest
One label from this list, please: active, inactive

Answered cases to consult:
- molecule: "O=C(Oc1cccc2cccnc12)c1cc2c(cc1Cl)SC(N(c1ccc(F)cc1)S(=O)(=O)c1ccc(Br)s1)=NS2(=O)=O"
  categoryLabel: "inactive"
- molecule: "O=C(Nc1ccc2[nH]nc(-c3ccncc3)c2c1)[C@@H]1CCN(CC(=O)N2CCN(c3ccc(-c4ncccn4)cc3)CC2)C1"
  categoryLabel: "inactive"
- molecule: "CS(=O)(=O)Nc1cncc(-c2ccc3ncnc(Nc4ccc(F)c(Cl)c4)c3c2)c1"
  categoryLabel: "inactive"

[Q] What did this assay record as the result for CC(C)(C)c1ccc(S(=O)(=O)Oc2ccc3c4c(c(=O)oc3c2)CCCCC4)cc1 ?
[A] inactive

[Q] Recorded test outcome, item CC(N)C(Cc1ccc(Cl)cc1)c1ccc(Cl)cc1 (stereo unspecified)
[A] inactive

[Q] Recorded call for CCN1C/C(=C\c2cc(OC)c(OC)cc2OC)C(=O)/C(=C/c2cc(OC)c(OC)cc2OC)C1 ?
[A] inactive

[Q] Per the assay record, what outcome was assigned to O=S(=O)(NCCCNc1nccc(-c2c(-c3ccc(O)cc3)nc3sccn23)n1)c1ccc(F)cc1 ?
[A] inactive

[Q] GET /call?item= CCOC(=O)/C(=C/N1CCN(C(=O)c2ccco2)C1=S)C(=O)c1ccccc1 returns the recorded outcome of this test.
[A] active

[Q] // return assay outcome for CCC(C)[C@H]1O[C@]2(CC[C@@H]1C)C[C@@H]1C[C@@H](C/C=C(\C)[C@@H](OC3C[C@H](OC)C(O[C@H]4C[C@H](OC)[C@@H](O)[C@H](C)O4)[C@H](C)O3)[C@@H](C)/C=C/C=C3\CO[C@@H]4[C@H](O)C(C)=C[C@@H](C(=O)O1)[C@]34O)O2 (stereo partly specified)
[A] inactive

[Q] Assay result, entry COCC1CCCN1c1ccc(C=N/C(C#N)=C(\N)C#N)cc1 (stereo unspecified) — outcome?
[A] inactive

[Q] I'd appreciate the recorded outcome for Cc1nc([P+](c2ccccc2)(c2ccccc2)c2ccccc2)c(Sc2sc(-c3ccccc3)nc2[P+](c2ccccc2)(c2ccccc2)c2ccccc2)o1 from this test.
[A] inactive
